tested on: Hs-578T; assay: NCI tumour cell line growth inhibition, 48 h
Activity calls are given as the source filed them. Cut-off read from the data, not from the text of the source: active = GI50 up to about 1.1 µM and inactive = higher. Positions of bridges follow the written chain, without caps; N, C: chain ends. Non-standard residues stand in square brackets, D forms with d. Residues, ends and D or L forms follow the SMILES beside them. Aib = CC(C)(N)C(=O)O; βAla = NCCC(=O)O
measured.endpoint: GI50

* CCN(CC)Cc1ccccc1CC(=O)N1c2ccccc2C(=O)Nc2cccnc21 | > 100 µM (inactive)
* CC1(C)NC(=O)C(NC(=O)C(N)CC(=O)O)CCCCNC(=O)CCNC1=O (configuration not stated) (H-DK[Aib][βAla]; lactam 2-C; configuration not given here) | > 100 µM (inactive)
* CCCc1cc(COC)c(C#N)c(O)n1 | > 100 µM (inactive)
* O=C(O)Cc1nc[nH]c1C(=O)O | > 100 µM (inactive)
* CC(C)NC(=O)OCCN=C1c2ccccc2C(Br)C(Br)c2ccccc21 (configuration not stated) | 8.41 µM (inactive)

Which measured GI50 value corresponds to `O=C(NCc1ccccc1)c1cc2ccccc2o/c1=N\c1ccccc1F` ?
32.1 µM (inactive)

Which measured GI50 value corresponds to `C=CCC1(Sc2ccccn2)Sc2ccc3ccccc3c2-c2c(ccc3ccccc23)S1` ?
> 100 µM (inactive)

---

system: UACC-62; test: NCI tumour cell line growth inhibition, 48 h
Activity calls are given as the source filed them. No stated cut-off is given here; in the data, active = GI50 up to about 1.1 µM and inactive = higher.
measured.endpoint: GI50

• CCOC(=O)N1CC2(C)C=CC1C(C(=O)OC)C2 (stereo not given) = > 100 µM (inactive)
• CN(CCN(C)C(=O)CCn1ccc(=O)[nH]c1=O)C(=O)CCn1ccc(=O)[nH]c1=O = > 100 µM (inactive)
• CCCS(=O)(=O)/C(=C(\c1ccc(Br)cc1)S(=O)(=O)CCC)c1ccc(Br)cc1 = > 10 µM (inactive)
• O=C(O)c1ccc(Nc2nc3cc(C(F)(F)F)ccc3n3cccc23)cc1 = 23.9 µM (inactive)
• COc1cccc(NC(=O)/C(CS(=O)(=O)CCC(C(C)=O)C(C)=O)=N/NC(C)(C)C)c1 = > 100 µM (inactive)
• CC(C)(C)C1CCC2c3c([nH]c4ccccc34)C3C(=O)N(c4ccccc4[N+](=O)[O-])C(=O)C3C2C1 (stereo not given) = 12.2 µM (inactive)
• Cc1ccc(NC(=O)CC2Sc3ccccc3NC2=O)cc1C (stereo not given) = 75.3 µM (inactive)
• Cc1cn(C2CC(O)C(Cn3nncc3Cn3nc(Br)c(=O)[nH]c3=O)O2)c(=O)[nH]c1=O (stereo not given) = > 100 µM (inactive)

Which measured GI50 value corresponds to CN1C(=O)CCC1(O)C1C=CC=CC1 (stereo not given) ?
> 100 µM (inactive)

Which measured GI50 value corresponds to `CCOC(=O)C1=C(C)N(Cc2ccccc2)C(C)=C(C(=O)OCC)C1c1ccccc1O` ?
18.1 µM (inactive)

---

test system: PC-3; assay: NCI tumour cell line growth inhibition, 48 h
Active and inactive are the calls of the source. Rule as the data show it: active = GI50 up to about 1.1 µM and inactive = higher.
Assign a class; possible classes are true (1) = active, false (0) = inactive

* COc1ccc2c(c1)C1Oc3ccccc3CC1(O)CO2 (stereo not drawn) | false (0)
* N#CC1C(=O)N(c2ccccc2)NC12OC(=O)c1ccncc12 (stereo not drawn) | false (0)

Would you kindly look at the next entry?
What outcome does the record of this test show for `Cc1c(C#N)c2nnn(-c3ccccc3)c(=O)n2c1-c1ccccc1` ?
false (0)
